Molecular target: Chymase, from human skin (Homo sapiens, UniProt P23946)
Sequence (P23946 22-247): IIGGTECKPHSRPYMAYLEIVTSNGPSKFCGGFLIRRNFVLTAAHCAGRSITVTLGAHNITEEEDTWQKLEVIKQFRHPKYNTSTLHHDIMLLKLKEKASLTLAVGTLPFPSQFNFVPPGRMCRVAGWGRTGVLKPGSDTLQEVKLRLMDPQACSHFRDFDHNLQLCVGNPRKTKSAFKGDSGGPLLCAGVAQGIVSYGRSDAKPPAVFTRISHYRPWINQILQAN
Test: Enzymatic assay, chymase
Where a SMILES comes first, the peptide text is derived from it.
Please use class 1 for Chymase at 100 μM % under 3% and class 0 for everything else, ties included.

A selection of reference data follows.
{"Compound": "CCCC[C@@H]1NC(=O)[C@H](CCCNC(=N)N)NC(=O)[C@@H]2CCCN2C(=O)[C@H]2CCCN2C(=O)[C@H](Cc2ccccc2)NC(=O)[C@H](CCCC)NC(=O)[C@H]([C@@H](C)CC)NC(=O)[C@@H]2CCCN2C(=O)[C@@H]2CCCN2C(=O)[C@H](CC(=O)O)NC(=O)[C@H](CO)NC(=O)[C@H](CCCCN)NC(=O)[C@H]([C@@H](C)O)NC1=O [Ex. 8] (HELM PEPTIDE1{R.[Nle].T.K.S.D.P.P.I.[Nle].F.[dP].P}$PEPTIDE1,PEPTIDE1,1:R1-13:R2$$$V2.0)", "Group label": "class 0"}
{"Compound": "CCCC[C@@H]1NC(=O)[C@@H]2CCCN2C(=O)[C@H]2CCCN2C(=O)[C@H](CC2CCCCC2)NC(=O)[C@@H]2CSSC[C@H](NC1=O)C(=O)N[C@@H]([C@@H](C)O)C(=O)N[C@@H](C)C(=O)N[C@@H](CO)C(=O)N[C@@H]([C@@H](C)CC)C(=O)N1CCC[C@H]1C(=O)N1CCC[C@H]1C(=O)N[C@@H](CCC(N)=O)C(=O)N2 [Ex. 97] (HELM PEPTIDE1{[Nle].C.T.A.S.I.P.P.Q.C.[Cha].[dP].P}$PEPTIDE1,PEPTIDE1,2:R3-10:R3|PEPTIDE1,PEPTIDE1,1:R1-13:R2$$$V2.0)", "Group label": "class 1"}
{"Compound": "CC[C@H](C)[C@@H]1NC(=O)[C@@H]2CCCN2C(=O)[C@H]2CCCN2C(=O)[C@H](CCCNC(=N)N)NC(=O)[C@@H]2CSSC[C@H](NC1=O)C(=O)N[C@@H]([C@@H](C)O)C(=O)N[C@@H](CCCCN)C(=O)N[C@@H](CO)C(=O)N[C@@H](CC(=O)O)C(=O)N1CCC[C@H]1C(=O)N1CCC[C@H]1C(=O)N[C@@H](CC1CCCCC1)C(=O)N2 [Ex. 58] (HELM PEPTIDE1{I.C.T.K.S.D.P.P.[Cha].C.R.[dP].P}$PEPTIDE1,PEPTIDE1,2:R3-10:R3|PEPTIDE1,PEPTIDE1,1:R1-13:R2$$$V2.0)", "Group label": "class 0"}

Please check: Chymase at 100 μM % for CC[C@H](C)[C@@H]1NC(=O)[C@H](CO)NC(=O)[C@H](C)NC(=O)[C@H]([C@@H](C)O)NC(=O)[C@@H]2CSSC[C@H](NC(=O)[C@H](CCC(N)=O)NC(=O)[C@@H]3CCCN3C(=O)[C@@H]3CCCN3C1=O)C(=O)N[C@@H](Cc1ccccc1)C(=O)N1CCC[C@@H]1C(=O)N1CCC[C@H]1C(=O)N[C@@H](CCc1ccccc1)C(=O)N2 [Ex. 146] (HELM PEPTIDE1{[O=C([C@H](CCc1ccccc1)N[*:1])[*:2]].C.T.A.S.I.P.P.Q.C.F.[dP].P}$PEPTIDE1,PEPTIDE1,2:R3-10:R3|PEPTIDE1,PEPTIDE1,1:R1-13:R2$$$V2.0) , strictly under 3% or not? class 1

Then what about the compound CC[C@H](C)[C@@H]1NC(=O)[C@@H]2CCCN2C(=O)[C@H]2CCCN2C(=O)[C@H](CCCNC(=N)N)NC(=O)[C@@H]2CSSC[C@H](NC1=O)C(=O)N[C@@H]([C@@H](C)O)C(=O)N[C@@H](CCCCN)C(=O)N[C@@H](CO)C(=O)N[C@@H](CC(=O)O)C(=O)N1CCC[C@H]1C(=O)N1CCC[C@H]1C(=O)N[C@@H](CC1CCCCC1)C(=O)N2 [Ex. 20] (HELM PEPTIDE1{I.C.T.K.S.D.P.P.[Cha].C.R.[dP].P}$PEPTIDE1,PEPTIDE1,2:R3-10:R3|PEPTIDE1,PEPTIDE1,1:R1-13:R2$$$V2.0) ? class 0

And the next one, CCCC[C@@H]1NC(=O)[C@@H]2CCCN2C(=O)[C@@H]2CCCN2C(=O)[C@H](CC(=O)O)NC(=O)[C@H](CO)NC(=O)[C@H](CCCCN)NC(=O)[C@H]([C@@H](C)O)NC(=O)[C@@H]2CSSC[C@H](NC1=O)C(=O)N[C@@H](CO)C(=O)N1CCC[C@@H]1C(=O)N1CCC[C@H]1C(=O)N[C@@H](Cc1ccccc1)C(=O)N2 [Ex. 15] (HELM PEPTIDE1{F.C.T.K.S.D.P.P.[Nle].C.S.[dP].P}$PEPTIDE1,PEPTIDE1,2:R3-10:R3|PEPTIDE1,PEPTIDE1,1:R1-13:R2$$$V2.0) ? class 0

Try the compound CC[C@H](C)[C@@H]1NC(=O)[C@@H]2CCCN2C(=O)[C@@H]2CCCN2C(=O)[C@H](CC(=O)O)NC(=O)[C@H](CO)NC(=O)[C@H](CCCCN)NC(=O)[C@H]([C@@H](C)O)NC(=O)[C@@H]2CSSC[C@H](NC1=O)C(=O)N[C@@H](CO)C(=O)N1CCC[C@@H]1C(=O)N[C@@H](CCC(=O)O)C(=O)N[C@@H](Cc1ccccc1)C(=O)N2 [Ex. 64] (HELM PEPTIDE1{F.C.T.K.S.D.P.P.I.C.S.[dP].E}$PEPTIDE1,PEPTIDE1,2:R3-10:R3|PEPTIDE1,PEPTIDE1,1:R1-13:R2$$$V2.0) class 1

From: patent US8658604B2
